# ASSAY DETAILS: Stability of cannabinoid compounds and Vitamin E components in Beverage 2 (AB Red) by LCMSMS
# Format: physicochemical
# DETAILS: stored at 21-25° C., 210 days
Rule: Stability of Plant-Derived Cannabinoid Compounds in AB Red of 0.5 µg/mL or more gives YES; anything lower gives NO.

Q) Textbook exercise: given the entry CCCCCc1cc(O)c2c(c1)OC(C)(C)c1ccc(C)cc1-2 [CBN, cannabinol] , state whether its Stability of Plant-Derived Cannabinoid Compounds in AB Red is greater than or equal to 0.5 µg/mL.
A) YES

Q) Reported Stability of Plant-Derived Cannabinoid Compounds in AB Red reaches at least 0.5 µg/mL for CCCCCc1cc(O)c2c(c1)OC(C)(C)[C@@H]1CCC(C)=C[C@@H]21 [D9 THC, delta-9-tetrahydrocannabinol, reference compound] ?
A) YES

Q) State whether the measured Stability of Plant-Derived Cannabinoid Compounds in AB Red reaches 0.5 µg/mL, counting equality as reaching it, for CCCCCc1cc(O)c2c(c1)OC(C)(CCC=C(C)C)C=C2 (stereo not drawn) [CBC, cannabichromene]
A) NO

Q) Exam item: decide whether the reported Stability of Plant-Derived Cannabinoid Compounds in AB Red for C=C(C)[C@@H]1CCC(C)=C[C@H]1c1c(O)cc(CCCCC)c(C(=O)O)c1O [CBDA, cannabidiolic acid] is at least 0.5 µg/mL.
A) YES

Q) Could you tell me if the measured Stability of Plant-Derived Cannabinoid Compounds in AB Red of CCCc1cc(O)c2c(c1)OC(C)(C)[C@@H]1CCC(C)=C[C@@H]21 [THCV, delta-9-tetrahydrocannabivarin] reaches 0.5 µg/mL or more?
A) YES

Q) Quick check, Stability of Plant-Derived Cannabinoid Compounds in AB Red >= 0.5 µg/mL? CCCCCc1cc(O)c(C/C=C(\C)CCC=C(C)C)c(O)c1 [CBG, cannabigerol]
A) YES

Q) Test whether the compound C=C(C)[C@@H]1CCC(C)=C[C@H]1c1c(O)cc(CCC)cc1O [CBDV, cannabidivarin] records Stability of Plant-Derived Cannabinoid Compounds in AB Red of 0.5 µg/mL or higher.
A) NO

Q) Item CCCCCc1cc2c(c(O)c1C(=O)O)[C@@H]1C=C(C)CC[C@H]1C(C)(C)O2 [D9 THCA, delta-9-tetrahydrocannabinolic acid] with Stability of Plant-Derived Cannabinoid Compounds in AB Red of 0.5 µg/mL or above?
A) YES

====

Would you kindly list Stability of Plant-Derived Cannabinoid Compounds in AB Red for each of these compounds?
# ASSAY DETAILS: Stability of cannabinoid compounds and Vitamin E components in Beverage 2 (AB Red) by LCMSMS
# Assay type: physicochemical
# DETAILS: stored at 21-25° C., 22 days
The reply should consist of the numeric value with the unit placed after it.

Q) Entry under review: CCCCCc1cc(O)c2c(c1)OC(C)(C)[C@@H]1CCC(C)=C[C@@H]21 [D9 THC, delta-9-tetrahydrocannabinol, reference compound] . Reported Stability of Plant-Derived Cannabinoid Compounds in AB Red?
A) 12.9 µg/mL

Q) Look up Stability of Plant-Derived Cannabinoid Compounds in AB Red: CCCCCc1cc(O)c(C/C=C(\C)CCC=C(C)C)c(O)c1
A) 4.71 µg/mL

Q) Given the entry C=C(C)[C@@H]1CCC(C)=C[C@H]1c1c(O)cc(CCCCC)c(C(=O)O)c1O , report its measured Stability of Plant-Derived Cannabinoid Compounds in AB Red.
A) 1.66 µg/mL

Q) Recorded Stability of Plant-Derived Cannabinoid Compounds in AB Red of CCCCCc1cc2c(c(O)c1C(=O)O)[C@@H]1C=C(C)CC[C@H]1C(C)(C)O2 [D9 THCA, delta-9-tetrahydrocannabinolic acid] , please.
A) 1.34 µg/mL

Q) Given the compound CCCc1cc(O)c2c(c1)OC(C)(C)[C@@H]1CCC(C)=C[C@@H]21 [THCV, delta-9-tetrahydrocannabivarin] , what is its reported Stability of Plant-Derived Cannabinoid Compounds in AB Red?
A) 3.18 µg/mL

Q) I am curious: what Stability of Plant-Derived Cannabinoid Compounds in AB Red value has been reported for CCCCCc1cc(O)c2c(c1)OC1(C)CCC3C1C2C3(C)C (stereo not drawn) ?
A) 0.49 µg/mL

Q) Fill blank: measured Stability of Plant-Derived Cannabinoid Compounds in AB Red of the compound CCCCCc1cc(O)c2c(c1)OC(C)(C)c1ccc(C)cc1-2 is ____.
A) 2.70 µg/mL

Q) Request the reported Stability of Plant-Derived Cannabinoid Compounds in AB Red associated with CCCCCc1cc(O)c2c(c1)OC(C)(CCC=C(C)C)C=C2 (stereo not drawn)
A) 0.29 µg/mL

Q) Any idea what Stability of Plant-Derived Cannabinoid Compounds in AB Red was measured for C=C(C)[C@@H]1CCC(C)=C[C@H]1c1c(O)cc(CCC)cc1O ?
A) 0.20 µg/mL
